target.or.system: SpSLC9C1 (Strongylocentrotus purpuratus)
Construct: ITC and nanoDSF: isolated CTD (S946–E1193: helix E', CNBD and β-CTD); cryo-EM: full-length SpSLC9C1 in lipid nanodiscs
Sequence (A3RL54 946-1193): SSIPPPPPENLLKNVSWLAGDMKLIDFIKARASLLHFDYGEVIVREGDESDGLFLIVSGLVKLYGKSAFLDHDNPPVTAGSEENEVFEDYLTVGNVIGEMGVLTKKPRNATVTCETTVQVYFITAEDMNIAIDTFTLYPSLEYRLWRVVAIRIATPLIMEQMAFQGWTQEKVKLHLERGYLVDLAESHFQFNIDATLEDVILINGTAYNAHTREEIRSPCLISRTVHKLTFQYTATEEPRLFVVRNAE
assay.summary: ITC (isolated CTD), nanoDSF ([…] °C shift), cryo-EM structure
pKd: −log10 of the molar value.

>  <given.smiles>
Nc1nc2c(ncn2[C@@H]2O[C@@H]3COP(=O)(O)O[C@H]3[C@H]2O)c(=O)[nH]1

>  <target.or.system>
SpSLC9C1 (Strongylocentrotus purpuratus)

>  <pKd>
5.03

$$$$
